Experimental target: human recombinant PAK1-KD protein (Homo sapiens)
Sequence (Q13153 270-521 limits assumed): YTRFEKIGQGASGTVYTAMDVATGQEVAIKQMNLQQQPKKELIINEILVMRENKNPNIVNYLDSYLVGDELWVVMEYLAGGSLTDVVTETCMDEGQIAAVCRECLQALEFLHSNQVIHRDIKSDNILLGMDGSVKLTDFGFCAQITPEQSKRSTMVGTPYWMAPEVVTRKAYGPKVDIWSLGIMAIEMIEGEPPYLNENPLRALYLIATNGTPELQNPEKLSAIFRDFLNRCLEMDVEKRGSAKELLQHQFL
Assay notes: PAK1-KD (kinase domain) IC50 Zlyte assay
Recorded conditions: Z′-LYTE FRET peptide substrate (Ser/Thr19), 20 pM PAK1-KD, 60-minute incubation at 22° C.
Attribute: log10 of IC50
Values are log10 of IC50 in nM.

CCn1c(=O)c(-c2ccc(S(=O)(=O)N3CCOCC3)cc2C)cc2cnc(NCCC3CCN(C)CC3)nc21 :: 2.88
CCNc1ncc2cc(-c3ccc(S(=O)(=O)NC(C)C)cc3Cl)c(=O)n(C)c2n1 :: 2.25
CCn1c(=O)c(-c2ccc(S(=O)(=O)N(C)C)cc2C)cc2cnc(NCCC3CCN(C)CC3)nc21 :: 3.12
CCn1c(=O)c(-c2ccc(S(=O)(=O)NC3CC3)cc2C)cc2cnc(NCCC3CCN(C)CC3)nc21 :: 1.89
CCNc1ncc2cc(-c3ccc(S(=O)(=O)NC)cc3Cl)c(=O)n(C)c2n1 :: 3.20

Inquiry: log10 of IC50 for `CCn1c(=O)c(-c2cccc(S(=O)(=O)N(C)C)c2)cc2cnc(NCCC3CCN(C)CC3)nc21` ?
Reply text: 2.26

Inquiry: Entry under review: `CCNc1ncc2cc(-c3ccc(S(=O)(=O)NCC)cc3Cl)c(=O)n(CC)c2n1` . Reported log10 of IC50?
Reply text: 2.12

Inquiry: What value of log10 of IC50 has been recorded for this entry: `CCNS(=O)(=O)c1ccc(-c2cc3cnc(NCCC4CCN(C)CC4)nc3n(CC)c2=O)c(C)c1`
Reply text: 2.12

Inquiry: Query: log10 of IC50; subject: `CC(C)NS(=O)(=O)c1ccc(-c2cc3cnc(NCCC4CCN(C)CC4)nc3n(C)c2=O)c(Cl)c1`
Reply text: 1.91

Inquiry: Quick one: log10 of IC50 for `CCn1c(=O)c(-c2cc(S(=O)(=O)N(C)C)ccc2Cl)cc2cnc(NCCC3CCN(C)CC3)nc21` ?
Reply text: 2.49

---

Experimental target: human recombinant PAK1-KD protein (Homo sapiens)
Assay notes: PAK1-KD (kinase domain) IC50 Zlyte assay
Recorded conditions: Z′-LYTE FRET peptide substrate (Ser/Thr19), 20 pM PAK1-KD, 60-minute incubation at 22° C.
Listing of entries alongside the reported pIC50.
Units for pIC50: none; it is -log10 of a concentration expressed in mol/L.

Completed entries (count: 3):
CCn1c(=O)c(-c2ccc(S(=O)(=O)N3CCCC3)cc2C)cc2cnc(NCCC3CCN(C)CC3)nc21 [Compound I-5] :: 6.34
CCn1c(=O)c(-c2ccc(S(=O)(=O)NC)cc2C)cc2cnc(NCCC3CCN(C)CC3)nc21 [Compound I-7] :: 6.24
CCNS(=O)(=O)c1ccc(-c2cc3cnc(NCCC4CCN(C)CC4)nc3n(CC)c2=O)c(Cl)c1 [Compound I-8] :: 7.65

Next compound, please.
Inquiry: Quick one: pIC50 of CNS(=O)(=O)c1ccc(-c2cc3cnc(NCCC4CCN(C)CC4)nc3n(C)c2=O)c(Cl)c1 [Compound I-10] ?
Reply text: 6.09
